Reported Bmax (MFI) values are given for each entry in this list.
# Target or test system: T1, mouse NKp46 (mouse, UniProt Q8C567 17-325)
# T1 construct: whole, on cells
# T1 sequence (looked up): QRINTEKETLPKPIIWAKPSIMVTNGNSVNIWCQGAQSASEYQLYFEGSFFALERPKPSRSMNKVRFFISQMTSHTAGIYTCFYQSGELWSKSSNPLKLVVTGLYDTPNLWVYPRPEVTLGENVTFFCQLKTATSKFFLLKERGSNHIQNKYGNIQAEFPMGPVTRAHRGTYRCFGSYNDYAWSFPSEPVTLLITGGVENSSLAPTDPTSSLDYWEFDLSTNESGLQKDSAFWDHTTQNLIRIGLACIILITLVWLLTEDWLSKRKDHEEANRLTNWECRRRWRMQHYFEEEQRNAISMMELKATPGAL
# Test method notes: flow cytometry, HEK293F cells transfected with mouse NKp46
Express your answer in MFI, writing the number without its unit.

NKp46-hz5D7v15-Fc* (Fc fusion, VHH-Fc fusion with an IgG1 Fc lacking a hinge (Fc*)) EVQLVESGGGEVQPGGSLRLSCAASGRTFASAAMGWFRQAPGKEREFVAAISRSDDTYYAESVKGRFTISRDNAKNTVYLQMSSLRAEDTAVYYCAAVVPTYGNAIYVHSAAYNYWGQGTLVTVKPGGGGPSVFLFPPKPKDTLMISRTPEVTCVVVDVSHEDPEVKFNWYVDGVEVHNAKTKPREEQYNSTYRVVSVLTVLHQDWLNGKEYKCKVSNKALPAPIEKTISKAKGQPREPQVYTLPPSRDELTKNQVSLTCLVKGFYPSDIAVEWESNGQPENNYKTTPPVLDSDGSFFLYSKLTVDKSRWQQGNVFSCSVMHEALHNHYTQKSLSLSPG: 34300

Here is another binder to look at.
### Prompt Given NKp46-hz5D7v14-Fc* (Fc fusion, VHH-Fc fusion with an IgG1 Fc lacking a hinge (Fc*)) EVQLVESGGGEVQPGGSLRLSCAASGRTFASAAMGWFRQAPGKEREFVAAISRSDDTYYAESVKGRFTISRDNAKNTVYLQMSSLRAEDTAVYYCAAVVPTYGSSIYVHSAAYNYWGQGTLVTVKPGGGGPSVFLFPPKPKDTLMISRTPEVTCVVVDVSHEDPEVKFNWYVDGVEVHNAKTKPREEQYNSTYRVVSVLTVLHQDWLNGKEYKCKVSNKALPAPIEKTISKAKGQPREPQVYTLPPSRDELTKNQVSLTCLVKGFYPSDIAVEWESNGQPENNYKTTPPVLDSDGSFFLYSKLTVDKSRWQQGNVFSCSVMHEALHNHYTQKSLSLSPG , respond with its Bmax (MFI).
### Response 11300
